Molecular target: Dual specificity protein phosphatase 1 (Mus musculus)
Test: Inhibition of histidine-tagged mouse MKP1 catalytic domain expressed in […]
pIC50: −log10 of the molar value.
Label rule, in plain words: pIC50 of 5 and up is Satisfied, under 5 is Not satisfied.

Example cases with answers are listed next.
O=C1C2=C(C(=O)c3ccccc31)S(=O)(=O)CCN2; Not satisfied
CCOC1=CC(=O)C(=O)c2ccccc21; Satisfied
C[C@@]12CCCc3coc(c31)C(=O)c1cc3c(cc12)C(=O)C1=C(NCCS1(=O)=O)C3=O; Satisfied
CC1=C(NCCO)C(=O)c2ccccc2C1=O; Not satisfied

**Query** Determine whether measured pIC50 meets or exceeds 5 for O=C1C2=C(C(=O)c3c(O)cccc31)S(=O)(=O)CCN2
**Result** Not satisfied

**Query** Determine whether measured pIC50 meets or exceeds 5 for O=C1C=C(NCCO)C(=O)c2ccccc21
**Result** Not satisfied

**Query** Determine whether measured pIC50 meets or exceeds 5 for O=C1C=CC(=O)c2cc3c(cc21)CCCC3
**Result** Not satisfied

**Query** Determine whether measured pIC50 meets or exceeds 5 for O=C1C2=C(C(=O)c3cc4c(cc31)CCCC4)S(=O)(=O)CCN2
**Result** Not satisfied

**Query** Determine whether measured pIC50 meets or exceeds 5 for CC1=CC(=O)c2ccccc2C1=O
**Result** Not satisfied

**Query** Determine whether measured pIC50 meets or exceeds 5 for O=C1C=CC(=O)C=C1
**Result** Not satisfied

**Query** Determine whether measured pIC50 meets or exceeds 5 for O=C1c2cc3c(cc2C(=O)C2OC12)CCCC3 (stereo not given)
**Result** Not satisfied

**Query** Determine whether measured pIC50 meets or exceeds 5 for O=C1c2ccccc2C(=O)c2ccccc21
**Result** Not satisfied

----------
Biological target: Dual specificity protein phosphatase 6 (Rattus norvegicus)
Sequence (Q64346 whole entry, the tested form may be a part): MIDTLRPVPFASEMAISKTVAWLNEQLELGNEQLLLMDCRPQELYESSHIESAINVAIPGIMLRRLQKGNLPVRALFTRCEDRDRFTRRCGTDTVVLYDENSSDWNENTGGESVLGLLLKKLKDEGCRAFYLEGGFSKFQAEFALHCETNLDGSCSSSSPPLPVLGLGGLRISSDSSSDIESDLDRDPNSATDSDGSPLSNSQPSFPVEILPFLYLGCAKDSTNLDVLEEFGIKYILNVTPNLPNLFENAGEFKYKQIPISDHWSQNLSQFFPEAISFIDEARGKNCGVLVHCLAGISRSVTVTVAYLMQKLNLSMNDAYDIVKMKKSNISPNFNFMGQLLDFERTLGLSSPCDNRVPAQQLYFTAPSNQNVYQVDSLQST
Experiment: Inhibition of histidine-tagged rat recombinant MKP3 catalytic domain expressed in Escherichia coli BL21(DE3)
measuredMetric: IC50 (µM)
Your answer is read as µM, so omit the unit and give the number.

Recorded IC50, per entry:
C[C@@]12CCCc3coc(c31)C(=O)c1cc3c(cc12)C(=O)C1=C(NCCS1(=O)=O)C3=O; 1.53
O=C1C=CC(=O)c2c(O)cccc21; 12.4
O=C1c2cc3c(cc2C(=O)C2OC12)CCCC3 (stereo not given); 49.9
O=C1C=CC(=O)c2c(O)ccc(O)c21; 6.9

**Query** Tell me IC50 reported for CC1=CC(=O)c2ccccc2C1=O
**Result** 20.5

**Query** Tell me IC50 reported for CCOC1=CC(=O)C(=O)c2ccccc21
**Result** 1.35

**Query** Tell me IC50 reported for O=C1C2=C(C(=O)c3ccccc31)S(=O)(=O)CCN2
**Result** 42.6

**Query** Tell me IC50 reported for O=C1C=CC(=O)c2ccccc21
**Result** 19.8

----------
Molecular target: M-phase inducer phosphatase 2 (Homo sapiens)
Test: Inhibition of histidine-tagged human recombinant Cdc25B catalytic domain expressed in Escherichia coli
measuredMetric: IC50 (nM)
Your answer is read as nM, so omit the unit and give the number.

Recorded IC50, per entry:
C[C@@]12CCCc3coc(c31)C(=O)c1cc3c(cc12)C(=O)C1=C(NCCS1(=O)=O)C3=O [ADOCIAQUINONE B]; 110
O=C1C2=C(C(=O)c3cc4c(cc31)CCCC4)S(=O)(=O)CCN2; 2300
O=C1c2ccccc2C(=O)c2ccccc21 [ANTHRAQUINONE]; 9510
O=C1C2=C(C(=O)c3c(O)cccc31)S(=O)(=O)CCN2; 880
O=C1C=CC(=O)c2c(O)cccc21 [JUGLONE]; 1980
O=C1C2=C(C(=O)c3ccccc31)S(=O)(=O)CCN2; 940
CC1=CC(=O)c2ccccc2C1=O [MENADIONE]; 3380
O=C1C=CC(=O)c2cc3c(cc21)CCCC3; 9530

Next, consider the following molecule.
**Query** Tell me IC50 reported for O=C1C=CC(=O)c2c(O)ccc(O)c21 [NAPHTHAZALIN]
**Result** 1000

----------
Molecular target: M-phase inducer phosphatase 2 (Homo sapiens)
Test: Inhibition of histidine-tagged full length human Cdc25B expressed in Escherichia coli
measuredMetric: IC50 (nM)
Your answer is read as nM, so omit the unit and give the number.

**Query** Tell me IC50 reported for C[C@@]12CCCc3coc(c31)C(=O)c1cc3c(cc12)C(=O)C1=C(NCCS1(=O)=O)C3=O [ADOCIAQUINONE B]
**Result** 80

----------
Target: Dual specificity protein phosphatase 1 (Mus musculus, UniProt P28563)
Sequence (P28563 whole entry, the tested form may be a part): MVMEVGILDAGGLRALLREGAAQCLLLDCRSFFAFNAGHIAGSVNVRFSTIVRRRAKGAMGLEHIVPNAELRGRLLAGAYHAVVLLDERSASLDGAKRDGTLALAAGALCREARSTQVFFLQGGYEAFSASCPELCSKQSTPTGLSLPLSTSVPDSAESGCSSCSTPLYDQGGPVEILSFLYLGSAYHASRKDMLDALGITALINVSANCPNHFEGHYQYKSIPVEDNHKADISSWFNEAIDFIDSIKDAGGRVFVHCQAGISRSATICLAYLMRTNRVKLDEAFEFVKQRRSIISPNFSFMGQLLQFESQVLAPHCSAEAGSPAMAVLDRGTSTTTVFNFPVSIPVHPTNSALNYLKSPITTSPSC
Experiment: Inhibition of histidine-tagged mouse MKP1 catalytic domain expressed in […]
measuredMetric: IC50 (µM)
Your answer is read as µM, so omit the unit and give the number.

Recorded IC50, per entry:
O=C1C=CC(=O)c2c(O)cccc21; 13
O=C1C=CC(=O)c2ccccc21; 8.45

Next, consider the following compound.
**Query** Tell me IC50 reported for O=C1C=CC(=O)c2c(O)ccc(O)c21
**Result** 9.37

----------
Target: M-phase inducer phosphatase 2 (Homo sapiens)
Test: Inhibition of histidine-tagged human recombinant Cdc25B catalytic domain expressed in Escherichia coli
measuredMetric: pIC50
The read-out pIC50 is expressed as -log10 of concentration in moles per litre.

Recorded pIC50, per entry:
O=C1c2cc3c(cc2C(=O)C2OC12)CCCC3 (stereo unspecified); 4.65
O=C1C=CC(=O)c2ccccc21 [NAPHTHOQUINONE]; 5.56

**Query** Tell me pIC50 reported for CCOC1=CC(=O)C(=O)c2ccccc21
**Result** 6.57

----------
Biological target: M-phase inducer phosphatase 2 (Homo sapiens, UniProt P30305)
Sequence (P30305 whole entry, the tested form may be a part): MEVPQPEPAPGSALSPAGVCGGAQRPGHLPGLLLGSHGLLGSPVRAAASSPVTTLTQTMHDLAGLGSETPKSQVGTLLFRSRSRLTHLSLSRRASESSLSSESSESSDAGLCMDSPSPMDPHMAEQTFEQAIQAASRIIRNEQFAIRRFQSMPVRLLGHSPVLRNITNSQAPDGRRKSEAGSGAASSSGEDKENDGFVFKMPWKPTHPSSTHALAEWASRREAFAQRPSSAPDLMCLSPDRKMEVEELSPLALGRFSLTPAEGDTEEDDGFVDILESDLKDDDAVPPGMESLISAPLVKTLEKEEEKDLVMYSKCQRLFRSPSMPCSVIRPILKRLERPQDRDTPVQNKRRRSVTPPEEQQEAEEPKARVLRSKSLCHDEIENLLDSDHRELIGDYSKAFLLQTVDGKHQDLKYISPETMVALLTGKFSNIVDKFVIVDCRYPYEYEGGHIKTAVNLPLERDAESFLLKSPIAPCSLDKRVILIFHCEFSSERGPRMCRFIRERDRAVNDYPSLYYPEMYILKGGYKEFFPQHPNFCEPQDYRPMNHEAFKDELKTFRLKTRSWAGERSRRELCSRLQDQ
Experiment: Inhibition of histidine-tagged human recombinant Cdc25B catalytic domain expressed in Escherichia coli
measuredMetric: IC50

O=C1C=CC(=O)C=C1; > 50 µM
O=C1C=C(NCCO)C(=O)c2ccccc21; > 50 µM

Next, consider the following compound.
**Query** Tell me IC50 reported for CC1=C(NCCO)C(=O)c2ccccc2C1=O
**Result** > 50 µM

Origin of the recorded values: ChEMBL document CHEMBL1153892
